- Test system: c-Abl (mouse);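 note: 11-residue human phosphosite peptides and single-mutation variants displayed on the E. coli surface, counted by deep sequencing, each peptide's frequency after selection divided by its frequency in the unselected input library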;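 note: frequency after pTyr selection over input frequency; kinase dosed for 20-30% of maximal phosphorylation in three min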
- ASSAY OVERVIEW: phosphorylation enrichment, bacterial display (enrichment ratio); higher = better substrate or ligand; peptides without Tyr show the background
Listed next: entries and their corresponding phosphorylation enrichment.
MEASURE: phosphorylation enrichment

INSERT INTO measurements (biosequence, assayed_target, measure, value) VALUES
  ('RYLKDYGEFEV [GINS1_Y156_C152Y]', 'c-Abl (mouse)', 'phosphorylation enrichment', 0.771),
  ('KVGNGYISAAE [CALM2_Y100_D96V]', 'c-Abl (mouse)', 'phosphorylation enrichment', 0.538),
  ('CTTTHYNFMCN [TP53_Y234_I232T_YF]', 'c-Abl (mouse)', 'phosphorylation enrichment', 0.484),
  ('RFGKVYKAHLF [ROR2_Y488_G490A]', 'c-Abl (mouse)', 'phosphorylation enrichment', 0.594),
  ('QPSPSYDSSGG [TCF12_Y70_R74G]', 'c-Abl (mouse)', 'phosphorylation enrichment', 0.477),
  ('LAARFYNWVCF [FLT4_Y1231_S1235C_YF]', 'c-Abl (mouse)', 'phosphorylation enrichment', 1.39),
  ('ALKKPYSVLYK [RPF2_Y59_G60S]', 'c-Abl (mouse)', 'phosphorylation enrichment', 0.516),
  ('SVLVPYEPPEV [TP53_Y220_V217L]', 'c-Abl (mouse)', 'phosphorylation enrichment', 0.874),
  ('FQNSLYAPDYS [FAM92A_Y226_R222Q]', 'c-Abl (mouse)', 'phosphorylation enrichment', 0.618),
  ('ASMAKYFASEI [ACADSB_Y372_YF]', 'c-Abl (mouse)', 'phosphorylation enrichment', 0.474),
  ('KVQVSYKGETK [HSPA1A_Y107]', 'c-Abl (mouse)', 'phosphorylation enrichment', 0.85),
  ('EEGENYQKGER [CHGB_Y173]', 'c-Abl (mouse)', 'phosphorylation enrichment', 0.797),
  ('LPEHPYHSRPR [NDUFA8_Y142_N140H]', 'c-Abl (mouse)', 'phosphorylation enrichment', 0.828),
  ('CSKRFYQLTKL [AR_Y858_R855K]', 'c-Abl (mouse)', 'phosphorylation enrichment', 0.587),
  ('QPSALYEDRYL [ASS1_Y83_S79P]', 'c-Abl (mouse)', 'phosphorylation enrichment', 0.681),
  ('EEGNPYYSGAR [MCCC2_Y520_S523G]', 'c-Abl (mouse)', 'phosphorylation enrichment', 0.597),
  ('LSPNMYNSKFW [TARSL2_Y457_L461F]', 'c-Abl (mouse)', 'phosphorylation enrichment', 1.1),
  ('NYNPNYCFAGK [ALK_Y1096_D1091N]', 'c-Abl (mouse)', 'phosphorylation enrichment', 0.803),
  ('TVHPGYGFLSE [PCCA_Y143_A138T]', 'c-Abl (mouse)', 'phosphorylation enrichment', 0.529),
  ('SRIWVYNHYRW [BRCA2_Y2621]', 'c-Abl (mouse)', 'phosphorylation enrichment', 0.783);

From: the supplement of paper PMC10065799
